Data provenance is patent US20130252951A1.

Target: human CCR2 (Homo sapiens, UniProt P41597)
Sequence (P41597 whole entry): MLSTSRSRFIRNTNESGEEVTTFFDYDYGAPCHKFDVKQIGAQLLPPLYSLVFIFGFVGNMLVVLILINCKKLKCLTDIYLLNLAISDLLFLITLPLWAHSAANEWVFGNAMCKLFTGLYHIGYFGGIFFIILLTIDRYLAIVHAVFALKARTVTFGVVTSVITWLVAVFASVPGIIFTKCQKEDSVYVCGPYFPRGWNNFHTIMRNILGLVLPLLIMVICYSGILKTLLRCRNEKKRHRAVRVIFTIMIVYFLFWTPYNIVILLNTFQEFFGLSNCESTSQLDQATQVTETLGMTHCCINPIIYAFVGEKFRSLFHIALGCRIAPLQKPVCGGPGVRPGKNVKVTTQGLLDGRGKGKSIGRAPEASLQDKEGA
Assay: CCR2 functional calcium assay (FLIPR calcium flux, hMCP-1 challenge)
Assay type: cell-based
Set-up: expressed in transfected cells; host or cells: HEK293 EBNA cells
Conditions: HEK293 EBNA cells transfected with human CCR2, hMCP-1 challenge; read-out: Functional CCR2 fKi
Excerpt: The CCR2 receptor couples through the Gi/Gq signaling pathway and results in activation of calcium mobilization. The functional activity of test compounds was routinely tested by measuring the ability of compounds to antagonize CCR2 activity in a dose dependent manner, in HEK293 EBNA cells transfected with the human CCR2 receptor (hMCP-1 challenge), using a calcium flux Fluorescent Imaging Plate Reader FLIPR assay. Non-transfected HEK293 EBNA cells were used as control of non-specific response. […]
This section presents molecules with their documented Ki values.

Some molecules with recorded Ki:
[[record]]
item_smiles = "CC(C)c1nc2ccnn2c(O)c1Cc1cc(F)cc(Cl)c1"
assay_target = "human CCR2 (Homo sapiens, UniProt P41597)"
observed_value = "< 10 nM"

[[record]]
item_smiles = "Cc1nc2c(C(=O)N(C)CCC#N)cnn2c(O)c1Cc1ccc(Cl)cc1"
assay_target = "human CCR2 (Homo sapiens, UniProt P41597)"
observed_value = "100 to 1000 nM"

[[record]]
item_smiles = "OCc1nc2ccnn2c(O)c1Cc1ccc(Cl)cc1"
assay_target = "human CCR2 (Homo sapiens, UniProt P41597)"
observed_value = "100 to 1000 nM"


Record summary for Oc1c(Cc2cccc(F)c2)c(-c2cnccn2)nc2cncn12 : reported Ki = 100 to 1000 nM

Per the records, this molecule ( COC(=O)c1nc2ccnn2c(O)c1Cc1cccc(Cl)c1 ) has Ki equal to < 10 nM

Sure, the documented Ki for CC(C)c1nc2ccnn2c(O)c1Cc1ccc(F)c(F)c1 is < 10 nM

Summary for this molecule, Oc1c(Cc2ccc(F)c(C(F)(F)F)c2)c(C2CCC2)nc2ccnn12 : Ki is < 10 nM

Data point: Cc1nc2ccnn2c(O)c1Cc1cccc(F)c1F ; Ki = 100 to 1000 nM

So, CC(C)c1nc2ccnn2c(O)c1Oc1ccc(Cl)c(Cl)c1 ? Its Ki was < 10 nM

Value of Ki reported for the molecule CC(C)OC(=O)c1nc2ccnn2c(O)c1Cc1ccc(Cl)c(Cl)c1 is < 10 nM
